src = ChEMBL document CHEMBL1139533

- System: Staphylococcus epidermidis
- ASSAY SUMMARY: Minimum inhibitory concentration against 533 Staphylococcus epidermidis
- Format: functional
READOUT: MIC

Study these solved cases before continuing.
CN[C@H](CC(C)C)C(=O)N[C@H]1C(=O)N[C@@H](CC(N)=O)C(=O)N[C@H]2C(=O)N[C@H]3C(=O)N[C@H](C(=O)N[C@H](C(=O)NCCCCCCCCCCN)c4cc(O)cc(O)c4-c4cc3ccc4O)[C@H](O)c3ccc(c(Cl)c3)Oc3cc2cc(c3O)Oc2ccc(cc2Cl)[C@H]1O; 2 µg/mL
NCCCCCCCCCCNC(=O)[C@H]1NC(=O)[C@H]2NC(=O)[C@H](NC(=O)[C@@H]3NC(=O)[C@H](CC(N)=O)NC(=O)[C@H](N)[C@H](O)c4ccc(cc4)Oc4cc3cc(c4O)Oc3ccc(cc3)[C@H]2O)c2ccc(O)c(c2)-c2c(O)cc(O)cc21; > 32 µg/mL

For record NCCCCCCCCCCNC(=O)[C@H]1NC(=O)[C@H]2NC(=O)[C@H](NC(=O)[C@@H]3NC(=O)[C@H](CC(N)=O)NC(=O)[C@H](N)[C@H](O)c4ccc(c(Cl)c4)Oc4cc3cc(c4O)Oc3ccc(cc3)[C@H]2O)c2ccc(O)c(c2)-c2c(O)cc(O)cc21 the listed MIC is > 32 µg/mL

Documented MIC of NC(=O)C[C@@H]1NC(=O)[C@H](N)[C@H](O)c2ccc(c(Cl)c2)Oc2cc3cc(c2O)Oc2ccc(cc2)[C@@H](O)[C@@H]2NC(=O)[C@H](NC(=O)[C@@H]3NC1=O)c1ccc(O)c(c1)-c1c(O)cc(O)cc1[C@@H](C(=O)O)NC2=O : > 128 µg/mL
